// data source = the Deep4Chem optical property database

Test: photoluminescence quantum yield (fraction); solvent given as SMILES
Details: in ClCCl
So basically, the class depends on measured photoluminescence quantum yield, and the ranges are lower band = under 0.3, central band = from 0.3 up to 0.7, upper band = 0.7 and over

- CC(C)c1cccc(C(C)C)c1N1C(=O)c2cccc3c(Oc4ccc(C(C)(C)C)cc4)ccc(c23)C1=O: lower band
- COc1ccc(C2=[N+]3C(=Nc4c(-c5ccc6ccccc6c5)cc(-c5ccc(OC)cc5)n4[B-]3(F)F)C(c3ccc4ccccc4c3)=C2)cc1: central band
- CN(C)c1ccc(/C=C/c2nc3ccc(Br)cc3nc2-c2ccccc2)cc1: lower band
- CCN(CC)c1ccc2c(c1)oc(=O)c1c(=O)oc3c(C)c4oc(=O)c5c(=O)oc6cc(N(CC)CC)ccc6c5c4cc3c12: central band
- C(=C\c1cc(/C=C/c2ccc(N(c3ccccc3)c3ccccc3)cc2)nc(/C=C/c2ccc(N(c3ccccc3)c3ccccc3)cc2)n1)/c1ccc(N(c2ccccc2)c2ccccc2)cc1: central band
- CCc1c(C)c2n(c1C)[B-](F)(F)[N+]1=C(c3ccc[nH]3)c3ccccc3C1=C2: central band
- CCn1c2ccccc2c2cc(-c3cc(-c4ccc5c(c4)c4ccccc4n5CC)ncn3)ccc21: upper band
- F[B-]1(F)OC(C#Cc2ccccc2)=C2CCc3ccccc3C2=[O+]1: upper band
- CC(C)(C)c1ccc2ccc3c(C(C)(C)C)ccc4ccc1c2c43: central band
- CC(C)(C)c1cc(C#Cc2ccc3c(C#Cc4cc(C(C)(C)C)cc(C(C)(C)C)c4)cc4c5cc(C#Cc6cc(C(C)(C)C)cc(C(C)(C)C)c6)ccc5c(C#Cc5cc(C(C)(C)C)cc(C(C)(C)C)c5)cc4c3c2)cc(C(C)(C)C)c1: central band
- COc1ccc(-c2ccc3c(c2)[Si](C)(C)c2cc(-c4ccc(OC)cc4)ccc2C=C3)cc1: upper band
- Cc1c2ccc(=[N+]3CCCCC3)cc-2oc2cc(N3CCCCC3)ccc12: upper band
- C[n+]1ccc(/C=C/c2ccc(N(c3ccccc3)c3ccc(/C=C/c4cc[n+](C)cc4)cc3)cc2)cc1: central band
- CC(C)(C)c1ccc(-c2sc3c(-c4ccc(C(C)(C)C)cc4)c4n(c3c2-c2ccc(C(C)(C)C)cc2)[B-](F)(F)[N+]2=Cc3c(-c5ccc(C(C)(C)C)cc5)c5sc(-c6ccc(C(C)(C)C)cc6)c(-c6ccc(C(C)(C)C)cc6)c5n3[B-](F)(F)[N+]2=C4)cc1: central band
- COc1ccc(CCNC(=O)c2sc(-c3ccc(-c4cc(-c5ccc(C(C)(C)C)cc5)c(C(=O)NCCc5ccc(OC)c(OC)c5)s4)s3)cc2-c2ccc(C(C)(C)C)cc2)cc1OC: lower band
- CC(C)(C)NC(=O)c1cccc2ccc3c4ccccc4c4ccccc4c3c12: lower band
- F[B-]1(F)n2c(c3cccc4cccc2c43)=Nc2ccc3ccccc3[n+]21: upper band
- COc1ccc(C#CC2=C3CCc4ccccc4C3=[O+][B-](F)(F)O2)cc1: lower band
- N#Cc1ccc(/C2=C3N=C(C(c4ccccc4)=C/3c3ccccc3)/C(c3ccc(C#N)cc3)=c3\[nH]/c(c(-c4ccccc4)c3-c3ccccc3)=C(/c3ccc(C#N)cc3)C3=N/C(=C(/c4ccc(C#N)cc4)c4[nH]c2c(-c2ccccc2)c4-c2ccccc2)C(c2ccccc2)=C3c2ccccc2)cc1: lower band
- O=C1NC(=O)C(c2c[nH]c3ccccc23)=C1c1c[nH]c2ccccc12: lower band
- CC(C)(C)c1ccc2c(c1)c1cc(C(C)(C)C)ccc1n2-c1ccc(C#Cc2ccc3c4ccc(C#Cc5ccc(C=C(C#N)C#N)cc5)cc4n(-c4ccc(C(F)(F)F)cc4)c3c2)cc1: lower band
- [BH3-][P+]1(c2ccccc2)c2ccccc2-c2sc3ccccc3c21 (stereo not given): central band
- O=C(c1ccc(N(c2ccccc2)c2ccccc2)cc1)[C@H]1[C@H](c2ccc(F)cc2)C[C@](O)(c2ccccn2)C[C@]1(O)c1ccccn1: lower band
- COc1ccc(O)c(-c2[nH]c(=O)n3c2-c2ccccc2C3=O)c1: central band
- Cc1cc(O)c(-c2[nH]c(=O)n3c2-c2ccccc2C3=O)cc1Cl: central band
- CC(C)(C)c1ccc(-c2cc3c4c(c2)CCc2cc(-c5ccc(C(C)(C)C)cc5)cc(c2-4)CC3)cc1: upper band
- C(=C\c1ncnc2ccccc12)/c1ccc(-c2ccc(N(c3ccccc3)c3ccccc3)cc2)cc1: lower band
- COc1ccc(-c2cc3c(ccc(=O)n3C)s2)cc1: upper band
- COc1cc(-c2cnc(-c3cnc4ccccc4c3)o2)cc(OC)c1OC: upper band
